Test system: KRAS PDC tumor spheroids (HUVEC+MSC), viability;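 further: spheroids exposed to compounds for seven days before readout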
test_method_notes: Anticancer human tumor 254851-301-R-J1-PDC patient-derived colon carcinoma cell line growth inhibition [KRAS2]
condition_parameters: curve of first compound; second compound 1 µM
pIC50: −log10 of the molar value.
reported_metric: pIC50

>  <compound>
CC(=O)Nc1cccc(-n2c(=O)n(C3CC3)c(=O)c3c(Nc4ccc(I)cc4F)n(C)c(=O)c(C)c32)c1 + C=CC(=O)N1CCN(c2nc(OCC3CCCN3C)nc3c2CCN(c2cccc4cccc(C)c24)C3)CC1CC#N

>  <value_prefix>
=

>  <recorded_number>
8.24

$$$$
>  <compound>
CC(C)NCC(C(=O)N1CCN(c2ncnc3c2C(C)CC3O)CC1)c1ccc(Cl)cc1 (stereo not given) + COc1cc2nc(C)nc(NC(C)c3cc(N)cc(C(F)(F)F)c3)c2cc1OC1CCOC1

>  <value_prefix>
=

>  <recorded_number>
5.69

$$$$
>  <compound>
CC(C)NCC(C(=O)N1CCN(c2ncnc3c2C(C)CC3O)CC1)c1ccc(Cl)cc1 (stereo not given) + CC1OCC2(CCN(c3cnc(Sc4ccnc(N)c4Cl)c(N)n3)CC2)C1N

>  <value_prefix>
<

>  <recorded_number>
5.00

$$$$
>  <compound>
CC(C)n1nc(-c2ccc3oc(N)nc3c2)c2c(N)ncnc21 + CNCc1ccccc1-c1csc(C(C)Nc2nc(C)nc3cc(OC)c(OC)cc23)c1

>  <value_prefix>
=

>  <recorded_number>
7.76

$$$$
>  <compound>
COc1cc2nccc(Oc3ccc(NC(=O)C4(C(=O)Nc5ccc(F)cc5)CC4)cc3)c2cc1OC + CC1OCC2(CCN(c3cnc(Sc4ccnc(N)c4Cl)c(N)n3)CC2)C1N

>  <value_prefix>
=

>  <recorded_number>
5.17

$$$$
